Values from patent EP0908457B1

Test system: Cyperus iria
method: Preemergence weed control under flooded paddy conditions, CYPIR (Rice Flatsedge); note: meaning of each grade not given here
Type: in vivo
test.conditions: Rate 0.0620 kg/ha; preemergence, flooded paddy; rated three to four weeks after treatment
Quick reference: herbicidal effect rating, CYPIR of the listed items.
measured.property: herbicidal effect rating, CYPIR

molecule="COC(C)c1nsc2ccc(-n3c(=O)cc(C(F)(F)F)n(C)c3=O)cc12 (centres unmarked) [Example 350]" measured_property="herbicidal effect rating, CYPIR" recorded_measurement=5.0
molecule="C#CCC(C#N)(CC#C)c1nsc2ccc(-n3c(=O)cc(C(F)(F)F)n(C)c3=O)cc12 [Example 581]" measured_property="herbicidal effect rating, CYPIR" recorded_measurement=4.5
molecule="Cn1c(C(F)(F)F)cc(=O)n(-c2ccc3snc(C#N)c3c2)c1=O [Example 373]" measured_property="herbicidal effect rating, CYPIR" recorded_measurement=9.0
molecule="Cn1c(C(F)(F)F)cc(=O)n(-c2ccc3snc(CS(=O)(=O)c4ccccc4)c3c2)c1=O [Example 393]" measured_property="herbicidal effect rating, CYPIR" recorded_measurement=3.0
molecule="CC(=O)OCCOC(=O)COc1ccc(C)cc1-c1nsc2ccc(-n3c(=O)cc(C(F)(F)F)n(C)c3=O)cc12 [Example 578]" measured_property="herbicidal effect rating, CYPIR" recorded_measurement=5.0
molecule="Cn1c(C(F)(F)F)cc(=O)n(-c2ccc3snc(COC(=O)c4ccccc4)c3c2)c1=O [Example 364]" measured_property="herbicidal effect rating, CYPIR" recorded_measurement=7.0
molecule="Cn1c(C(F)(F)F)cc(=O)n(-c2ccc3snc(C(C#N)=Cc4ccc[nH]4)c3c2)c1=O [Example 598]" measured_property="herbicidal effect rating, CYPIR" recorded_measurement=0.0
molecule="COc1ccc(COC(=O)C(C)(C)c2nsc3ccc(-n4c(=O)cc(C(F)(F)F)n(C)c4=O)cc23)cc1 [Example 397]" measured_property="herbicidal effect rating, CYPIR" recorded_measurement=7.0

----------
Test system: Oryza sativa, (L.) Tebonnet
method: Rice tolerance to post-transplant applications under flooded paddy conditions (Example 187), ORYSAT (Rice, Tebonnet)
test.conditions: 0.1250 kg/ha, herbicidal effect rating 0-9, three to four weeks after treatment
So basically: ORYSAT at 5 or higher? That is satisfied. Lower than 5? That is not satisfied.

compound="CCOCN(C(=O)c1nsc2ccc(-n3c(=O)cc(C(F)(F)F)n(C)c3=O)cc12)S(=O)(=O)Cc1ccccc1 [Example 440]" assay_system="Oryza sativa, (L.) Tebonnet" category="not satisfied"
compound="Cc1ccc(OCC(=O)NS(C)(=O)=O)c(-c2noc3cc(F)c(-n4c(=O)cc(C(F)(F)F)n(C)c4=O)cc23)c1 [Example 428]" assay_system="Oryza sativa, (L.) Tebonnet" category=satisfied
compound="CCOCOCc1nsc2ccc(-n3c(=O)cc(C(F)(F)F)n(C)c3=O)cc12 [Example 455]" assay_system="Oryza sativa, (L.) Tebonnet" category=satisfied
compound="COC(=O)C(C)Oc1cc2c(cc1-c1nsc3ccc(-n4c(=O)cc(C(F)(F)F)n(C)c4=O)cc13)CCC2 (stereo not drawn) [Example 435]" assay_system="Oryza sativa, (L.) Tebonnet" category="not satisfied"
compound="Cc1ccc(OCC(=O)N(C)S(C)(=O)=O)c(-c2nsc3ccc(-n4c(=O)cc(C(F)(F)F)n(C)c4=O)cc23)c1 [Example 437]" assay_system="Oryza sativa, (L.) Tebonnet" category=satisfied
compound="CCC(C#N)(CC)c1nsc2ccc(-n3c(=O)cc(C(F)(F)F)n(C)c3=O)cc12 [Example 445]" assay_system="Oryza sativa, (L.) Tebonnet" category=satisfied
compound="CCC(C#N)c1nsc2ccc(-n3c(=O)cc(C(F)(F)F)n(C)c3=O)cc12 (stereo not drawn) [Example 444]" assay_system="Oryza sativa, (L.) Tebonnet" category=satisfied
compound="Cn1c(C(F)(F)F)cc(=O)n(-c2ccc3snc(C(=O)NS(=O)(=O)Cc4ccc(C(C)(C)C)cc4)c3c2)c1=O [Example 405]" assay_system="Oryza sativa, (L.) Tebonnet" category="not satisfied"
compound="Cn1c(C(F)(F)F)cc(=O)n(-c2ccc3snc(C(=O)NS(=O)(=O)Cc4ccc(OC(F)(F)F)cc4)c3c2)c1=O [Example 406]" assay_system="Oryza sativa, (L.) Tebonnet" category="not satisfied"
compound="COc1cc(C)c(I)cc1-c1nsc2ccc(-n3c(=O)cc(C(F)(F)F)n(C)c3=O)cc12 [Example 429]" assay_system="Oryza sativa, (L.) Tebonnet" category="not satisfied"
compound="COCCOC(=O)c1nsc2ccc(-n3c(=O)cc(C(F)(F)F)n(C)c3=O)cc12 [Example 411]" assay_system="Oryza sativa, (L.) Tebonnet" category="not satisfied"
compound="CN(c1ccc(-c2nsc3ccc(-n4c(=O)cc(C(F)(F)F)n(C)c4=O)cc23)cc1)S(C)(=O)=O [Example 430]" assay_system="Oryza sativa, (L.) Tebonnet" category="not satisfied"
compound="Cc1ccsc1C=C(C#N)c1nsc2ccc(-n3c(=O)cc(C(F)(F)F)n(C)c3=O)cc12 [Example 457]" assay_system="Oryza sativa, (L.) Tebonnet" category="not satisfied"

----------
Tested on: Sagittaria pygmaea, L.
method: Preemergence weed control under flooded paddy conditions, SAGPY (Arrowhead (Pygmaea))
Type: in vivo
test.conditions: Rate 0.1250 kg/ha; preemergence, flooded paddy; rated three to four weeks after treatment
measured.property: SAGPY herbicidal effect rating

compound="CC(OCc1nsc2ccc(-n3c(=O)cc(C(F)(F)F)n(C)c3=O)cc12)C(F)(F)F (stereo not drawn)" assay_system="Sagittaria pygmaea, L." measured_property="SAGPY herbicidal effect rating" recorded_measurement=0.0
compound=CC(=O)/C=C/c1nsc2ccc(-n3c(=O)cc(C(F)(F)F)n(C)c3=O)cc12 assay_system="Sagittaria pygmaea, L." measured_property="SAGPY herbicidal effect rating" recorded_measurement=0.0
compound="COC(=O)C(C)Oc1c(-c2nsc3ccc(-n4c(=O)cc(C(F)(F)F)n(C)c4=O)cc23)ccc(C)c1C (stereo not drawn)" assay_system="Sagittaria pygmaea, L." measured_property="SAGPY herbicidal effect rating" recorded_measurement=3.0
compound=Cn1c(C(F)(F)F)cc(=O)n(-c2ccc3snc(COCC(=O)NS(C)(=O)=O)c3c2)c1=O assay_system="Sagittaria pygmaea, L." measured_property="SAGPY herbicidal effect rating" recorded_measurement=0.0
compound=C=Cc1nsc2ccc(-n3c(=O)cc(C(F)(F)F)n(C)c3=O)cc12 assay_system="Sagittaria pygmaea, L." measured_property="SAGPY herbicidal effect rating" recorded_measurement=9.0
compound=CO/N=C/c1nsc2ccc(-n3c(=O)cc(C(F)(F)F)n(C)c3=O)cc12 assay_system="Sagittaria pygmaea, L." measured_property="SAGPY herbicidal effect rating" recorded_measurement=9.0
compound=Cc1nsc2ccc(-n3c(=O)c(Cl)c(C(F)(F)F)n(C)c3=O)cc12 assay_system="Sagittaria pygmaea, L." measured_property="SAGPY herbicidal effect rating" recorded_measurement=0.0
compound=Cn1c(C(F)(F)F)cc(=O)n(-c2ccc3snc(CC=NO)c3c2)c1=O assay_system="Sagittaria pygmaea, L." measured_property="SAGPY herbicidal effect rating" recorded_measurement=0.0
compound=CC(C)OP(=O)(Cc1nsc2ccc(-n3c(=O)cc(C(F)(F)F)n(C)c3=O)cc12)OC(C)C assay_system="Sagittaria pygmaea, L." measured_property="SAGPY herbicidal effect rating" recorded_measurement=0.0

----------
System: Echinochloa oryzoides (Ard.) Fritsch.
method: Preemergence weed control under flooded paddy conditions, ECHORC (Watergrass (Calif.))
Format: in vivo
test.conditions: 0.0320 kg/ha; preemergence, flooded paddy; rated three to four weeks after treatment
measured.property: ECHORC herbicidal rating

molecule="Cn1c(C(F)(F)F)cc(=O)n(-c2ccc3snc(C(=O)NS(=O)(=O)Cc4ccc(Cl)cc4)c3c2)c1=O [Example 468]" assay_system="Echinochloa oryzoides (Ard.) Fritsch." recorded_measurement=7.0
molecule="Cn1c(C(F)(F)F)cc(=O)n(-c2ccc3snc(C(C)(C)C(=O)OCc4ccccn4)c3c2)c1=O [Example 510]" assay_system="Echinochloa oryzoides (Ard.) Fritsch." recorded_measurement=9.0
molecule="Cn1c(C(F)(F)F)cc(=O)n(-c2ccc3snc(C(C)(C)C(=O)O)c3c2)c1=O [Example 466]" assay_system="Echinochloa oryzoides (Ard.) Fritsch." recorded_measurement=2.0
molecule="COC(=O)c1nsc2cc(F)c(-n3c(=O)cc(C(F)(F)F)n(C)c3=O)cc12 [Example 513]" assay_system="Echinochloa oryzoides (Ard.) Fritsch." recorded_measurement=0.0
molecule="CCC(C(=O)OCc1nsc2ccc(-n3c(=O)cc(C(F)(F)F)n(C)c3=O)cc12)c1ccccc1 (stereo not drawn) [Example 473]" assay_system="Echinochloa oryzoides (Ard.) Fritsch." recorded_measurement=1.0
molecule="Cc1ccccc1CS(=O)(=O)NC(=O)c1nsc2ccc(-n3c(=O)cc(C(F)(F)F)n(C)c3=O)cc12 [Example 465]" assay_system="Echinochloa oryzoides (Ard.) Fritsch." recorded_measurement=6.0

----------
Tested on: Sagittaria pygmaea, L.
method: Postemergence weed control under flooded paddy conditions, SAGPY (Arrowhead (Pygmaea))
Format: in vivo
test.conditions: Rate 0.1250 kg/ha, rated three to four weeks after treatment
measured.property: herbicidal effect rating, SAGPY

structure=Cn1c(C(F)(F)F)cc(=O)n(-c2ccc3snc(C(=O)C(C)(C)C)c3c2)c1=O recorded_measurement=2.0
structure=COc1c(-c2nsc3ccc(-n4c(=O)cc(C(F)(F)F)n(C)c4=O)cc23)ccc(C)c1C recorded_measurement=0.0
structure=COc1cc(C)c(I)cc1-c1nsc2ccc(-n3c(=O)cc(C(F)(F)F)n(C)c3=O)cc12 recorded_measurement=0.0
